experiment: Acid dissociation constant was evaluated; format: ADME
measuredAttribute: pKa

Note to self: pKa recorded for CN(C)CCN(C)c1cc(-c2ccc3ccccc3c2)nc2ccccc12 was 6.2

Looking up CN(C)CCNC(=O)c1cc(-c2ccc3ccccc3c2)nc2ccccc12 , I found its pKa recorded as 2.9

GET /value?item= CN1CCN(Cc2cc(Nc3cc(-c4ccc5ccccc5c4)nc4ccccc34)cc(CN3CCN(C)CC3)c2O)CC1 &field=pKa returns 6.9

Field pKa (entry CN(C)CCOc1cc(-c2ccc3ccccc3c2)nc2ccccc12 ) reads 6.1
